assay.method.text: yeast display, Sf9 membrane polyspecificity reagent, FACS + sequencing; frameworks hold sequencing errors
quantity: polyreactivity (PSR sort gate)

QVQLVESGGRLVQAGGSLRLSCDASGRTFGKYALGWYRQAPGKEREFVATITRSGDSTYYADSVKGRFTISRDNAKNTVYLQMNSLKPEDTAVYNCAKDTYGVLSYFQVSREYWGQGTQVTVSS	low polyreactivity
QVQLVESGGGLVQAGGSLRLSCAASGRIFSGYVMGWYRQAPGKERELVAVISRSGGSTYYADSVKGRFTISRDNAKNTVYLLMNSLKPEDTAVYYCAAKHIDGSRGYVYWGQGTQVTVSS	low polyreactivity
QVQLVESGGGLVQAGGSLRLSCAASGSIFKYYAMGWYRQAPGKERELVAAISNGGSTNYADSLKGRFTISRDNAKNTVYLQMNSLKPEDTAVYYCAAGWFGYSAKYDYWGQGTRVTVSS	high polyreactivity
QVQLVESGGGLVQAGGSLRLSCAASGRTLDWNAMGWYRPAPGKERELVAAISWSGDSTYYADSVKGRFTISRDNAKNTVYLQMNSLKPEDTAVYYCAAAGVYYGVRGTTYAFDYWGQGTQVTVSS	low polyreactivity
QVQLVESGGGLVQAGGSLRLSCAASGFIQDYYAMGWYRHAPGKERELDAAISSGGTDTYYADSVKGRFTVSRDTAKNTVYLQMNSLKPEDTAVYYFAADSYWSAYDYWGQGTQVTVSS	low polyreactivity
QVQLVESGGGLVQAGGSLRLSCAASGFTFFDNAMGWYRQAPGKERELVAAITWSDGSTYYADSVKGRFTISRDNAKNTVYLQMNSLKAEDTAVYYCAVGFISYSYSNYYDVWYEYYYWGQGTQVTVSS	low polyreactivity
QVQLVESGGGLVQAGGSLRLICSASGSIFPQYAMVSYRPEPGKERALFAAISYSGGRSYYADSVKGRFTISRDIAKNTVYLQMNSLKTEYTGVYYWAARVKRGIPTYGKCYYAFGDWGQGTQVTVSS	high polyreactivity
QVHLQESGGGLEQAGGSPRLSCAASDNIFPDSVMCWYRQAPGKERELVATIGFGATTNYADSVKGRFTISRDNAKKTVFLQMNSLKPEDTAVYYCAADTLNYEYFCYWGQGTQVTVRS	low polyreactivity
QVQLVESGGGLVQAGGSLRLSCAASGFTFGSYAMGWYRQAPGKERELVAAISWGGGSTYYADSVKGRFTISRDNAKNTVYLQMNSLKPEDTAVYYCNADAISSFGYWGQGTQVTVSS	high polyreactivity
QVQLVESGGGLVQAGGSHRLSCAASGFTFRRNAMGWYRQAPGKERELVAAISWSGGSTYYADSVKGRFTISRDNAKNTVYLQMNSLKPEDTAVYYCAAYDYRHLEDKYDYWGQGTQVTVSS	high polyreactivity

In: Answer with the recorded polyreactivity (PSR sort gate) for the sequence listed here: QVQLVESGGGLVQAGGSLRLSCAASGSIFGYEMGWYRQAPGRERELVAAISFSGVSTYYADSVKGRFTISRDNAKNTVYIQMNSLKQEDTAVYNCNAYSDGDEDYWVQGTQVTVSS
Out: low polyreactivity

In: Answer with the recorded polyreactivity (PSR sort gate) for the sequence listed here: QVQLVESGGGLVHDGGSLRLSCAASGSILWPYAMGLYRQAPGKERELVAAISTGGSTYYADSVKGRFTISRDNANNTVYLQRNSLKPEDTAVYYCAAFVDYSVYFGGGYWGQGTQVTVSS
Out: low polyreactivity

In: Answer with the recorded polyreactivity (PSR sort gate) for the sequence listed here: QVQLVESGGGLVQAGGSLRLSCAASGSIFSNYAMGWYRQAPGKERELVAAISRSGGSTRYADSVKGRFTISRDNAKNTVYLQMNSLKPEDTAVYYCNAVRYPRLMYYWGQGTQVTVSS
Out: high polyreactivity

In: Answer with the recorded polyreactivity (PSR sort gate) for the sequence listed here: QVQLVESGGGLVQAGGSHRLSCAASGSTFGSNAMGWYRQAPGKERELVAARTIGGSTNYADSVKGRFTISRDNAKNTVYLEMTSLKPEETAVYYCNADPQQSKLWTYFFGFPGYYWGQGTQVTVSS
Out: low polyreactivity
